Target: T1, MYOF peptide complexed with HLA-A*02:01 on T2 cells (human)
T1 construct: whole, on cells
Assay: flow cytometry, peptide-loaded T2 cells;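 also: binding of single-chain Fv antibody constructs, raised in XenoMouse, to peptide-pulsed T2 cells measured by flow cytometry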
measurement-label: Signal/background
Note: the reply should be a number with no unit written.

Tell me measured Signal/background for 18089-D11 (scFv, scFv in bacterial lysate, detected with anti-Flag M2) scFv: EVQLLESGPVLVKPTQTLTLTCTFSGFSFTTHKMGVDWIRQPPGKALEWLALIYWNDDKRYNPSLQSRLTITKDTSKNQVVLTMTNMDPVDTATYYCAYRRYNWNYENWFDPWGQGTLVTVSSGGGGSGGGGSGGGGSELVMTQSPSSLSASVGDRVTITCRASQSISNYFNWYQQKPGKAPKLLIYAASSLQSGVPSRFSGSGSGTDFTLTISSLQPEDFATYYCQQSYITPFTFGGGTKLEIK please.
1.1
